Attribute: IC50
- Target System: BTK C481S protein (Homo sapiens (Human), UniProt Q06187, C481S)
- Sequence (Q06187 2-659 C481S): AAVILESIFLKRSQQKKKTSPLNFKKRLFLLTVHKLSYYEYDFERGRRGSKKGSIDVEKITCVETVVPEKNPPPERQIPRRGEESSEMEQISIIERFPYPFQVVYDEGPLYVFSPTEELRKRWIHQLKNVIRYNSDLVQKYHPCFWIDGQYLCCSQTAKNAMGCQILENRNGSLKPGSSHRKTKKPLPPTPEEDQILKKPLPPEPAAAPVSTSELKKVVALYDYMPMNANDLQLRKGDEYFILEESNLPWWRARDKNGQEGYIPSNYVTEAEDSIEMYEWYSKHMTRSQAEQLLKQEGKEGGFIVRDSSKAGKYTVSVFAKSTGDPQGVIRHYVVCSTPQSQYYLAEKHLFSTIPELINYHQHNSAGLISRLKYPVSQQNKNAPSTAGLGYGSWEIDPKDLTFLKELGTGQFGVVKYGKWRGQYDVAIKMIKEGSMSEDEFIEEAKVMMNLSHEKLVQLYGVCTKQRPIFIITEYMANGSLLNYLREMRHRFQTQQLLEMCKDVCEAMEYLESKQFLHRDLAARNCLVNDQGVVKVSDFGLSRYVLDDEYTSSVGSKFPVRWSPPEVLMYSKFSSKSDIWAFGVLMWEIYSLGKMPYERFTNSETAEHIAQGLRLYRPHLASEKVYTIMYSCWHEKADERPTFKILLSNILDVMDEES
- Protocol: BTK C481S HTRF displacement assay
- Test Conditions: 1-hour incubation

Here is how some molecules turned out for IC50.
[
  {
    "Molecule": "COc1ccc(F)cc1C(=O)NCc1ccc(-c2nn(C(CN(C)C(=O)n3cncn3)c3ccccc3)c3ncnc(N)c23)cc1 (centres unmarked) [Compound 243]",
    "Observed Measurement": "> 1000 nM"
  },
  {
    "Molecule": "CN(C(=O)n1cncn1)C1CCCC(C2CCNc3c(C(N)=O)c(-c4ccc(Oc5ccccc5)cc4)nn32)C1 (centres unmarked) [Compound 134]",
    "Observed Measurement": "≤ 1000 nM"
  },
  {
    "Molecule": "COc1ccc(F)cc1C(=O)NCc1ccc(-c2nn(C(C)C(C)N(C)C(=O)n3cncn3)c3ncnc(N)c23)cc1 (centres unmarked) [Compound 250]",
    "Observed Measurement": "≤ 1000 nM"
  },
  {
    "Molecule": "NC(=O)c1c(-c2ccc(Oc3ccccc3)cc2)nn(C2CCCN(C(=O)n3cncn3)C2)c1N (centres unmarked) [Compound 163]",
    "Observed Measurement": "≤ 1000 nM"
  },
  {
    "Molecule": "NC(=O)c1c(-c2ccc(Oc3ccccc3)cc2)nn2c1NCCC2C1CN(C(=O)n2cncn2)C1 (centres unmarked) [Compound 220]",
    "Observed Measurement": "≤ 1000 nM"
  },
  {
    "Molecule": "COc1ccc(F)cc1C(=O)NCc1ccc(-c2nn(C3(CN(C)C(=O)n4cnc(C#N)n4)CC3)c3ncnc(N)c23)cc1 [Compound 117]",
    "Observed Measurement": "> 1000 nM"
  },
  {
    "Molecule": "COc1ccc(F)cc1C(=O)NCc1ccc(-c2nn(C(CCN(C)C(=O)n3cncn3)C3CC3)c3ncnc(N)c23)cc1 (centres unmarked) [Compound 161]",
    "Observed Measurement": "> 1000 nM"
  }
]

We now examine a further molecule.
I am curious: what IC50 value has been reported for CC(CC1CCNc2c(C(N)=O)c(-c3ccc(Oc4ccccc4)cc3)nn21)N(C)C(=O)n1cncn1 (centres unmarked) [Compound 309] ?
≤ 1000 nM

---

Attribute: pIC50
- Target System: BTK wildtype protein (Homo sapiens (Human))
- Sequence (Q06187 2-659): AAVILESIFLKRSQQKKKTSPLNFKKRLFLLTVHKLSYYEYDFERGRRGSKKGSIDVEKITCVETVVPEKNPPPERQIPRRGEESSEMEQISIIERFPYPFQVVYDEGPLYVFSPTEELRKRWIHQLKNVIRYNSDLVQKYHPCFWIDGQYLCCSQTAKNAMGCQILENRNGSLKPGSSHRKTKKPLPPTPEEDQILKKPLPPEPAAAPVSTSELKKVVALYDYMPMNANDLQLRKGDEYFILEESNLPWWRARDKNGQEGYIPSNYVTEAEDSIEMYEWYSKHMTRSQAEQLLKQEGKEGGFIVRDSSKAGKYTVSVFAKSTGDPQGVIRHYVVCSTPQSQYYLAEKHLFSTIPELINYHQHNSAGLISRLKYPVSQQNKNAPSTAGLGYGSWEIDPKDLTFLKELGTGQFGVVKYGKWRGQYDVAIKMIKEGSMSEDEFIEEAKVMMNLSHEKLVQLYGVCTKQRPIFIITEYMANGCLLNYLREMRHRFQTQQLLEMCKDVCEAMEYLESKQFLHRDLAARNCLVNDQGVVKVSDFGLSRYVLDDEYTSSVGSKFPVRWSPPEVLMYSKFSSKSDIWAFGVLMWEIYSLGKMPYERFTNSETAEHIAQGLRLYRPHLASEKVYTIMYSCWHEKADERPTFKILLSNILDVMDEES
pIC50: −log10 of the molar value.

I am curious: what pIC50 value has been reported for CC(CC1CCNc2c(C(N)=O)c(-c3ccc(Oc4ccccc4)cc3)nn21)N(C)C(=O)n1cncn1 (centres unmarked) ?
≥ 6.00

Ok, now CN(C(=O)n1cncn1)C1CCCC1C1CCNc2c(C(N)=O)c(-c3ccc(Oc4ccccc4)cc3)nn21 (centres unmarked)
< 6.00

---

- Target System: BTK wildtype protein (Homo sapiens (Human))
pIC50: −log10 of the molar value.
Readout Label: pIC50

Here is how some compounds turned out for pIC50.
[
  {
    "Compound": "COc1ccc(F)cc1C(=O)NCc1ccc(-c2nn(C3(CCN(C)C(=O)n4cncn4)CC3)c3ncnc(N)c23)cc1 [Compound 225]",
    "Observed Measurement": "≥ 6.00"
  },
  {
    "Compound": "COc1ccc(F)cc1C(=O)NCc1ccc(-c2nn(CC3CC(C)CCN3C(=O)n3cncn3)c3ncnc(N)c23)cc1 (stereo not drawn) [Compound 112]",
    "Observed Measurement": "< 6.00"
  }
]

We now examine a further compound.
I am curious: what pIC50 value has been reported for CN(C(=O)n1cncn1)C1CCC(n2nc(-c3ccc(Oc4ccccc4)cc3)c(C(N)=O)c2N)C1 (stereo not drawn) [Compound 295] ?
≥ 6.00
